Here the recorded pEC50 is given for each entry.
target: Glycogen synthase kinase-3 beta (Homo sapiens); assay: concentration-response blocking of human GSK3B – biochemical, luminescence, cell-free homogeneous, retest, dose response (AID 434954)
pEC50: −log10 of the molar value.
OUTCOME MEASURE: pEC50

>>> df
                                   compound  value_observed
0  CC(=O)N1CCc2c(sc(NC(=O)C3COc4ccccc4O3)c2C(N)=O)C1 (stereo not given)            5.08
1  COCCOc1ccc(C(F)(F)F)cc1NC(=O)COC(=O)c1cc[n+]([O-])cc1          < 3.52
2  Nc1nc(NCCOCCO)nc(NC2CCCCC2)c1[N+](=O)[O-]            5.52
3  COc1ccc(/C=C(/NC(=O)c2ccccc2)C(=O)NN=Cc2ccncc2)c(OC)c1          < 3.52
4       COc1ccc(NC(=S)Nc2cccc(Cl)c2Cl)cc1OC          < 3.52
5  CN(C(=O)CSc1nnc(-c2c[nH]c3ccccc23)o1)C1CCS(=O)(=O)C1 (stereo not given)          < 3.52
6  COc1ccc(C(=O)c2coc3ccc(O)c(CN4CCCCC4)c23)cc1          < 3.52
7  C[C@H](NC(=O)[C@@H]1CSC2c3ccccc3C(=O)N21)C(=O)NCc1c(F)cccc1Cl (stereo not given in full)          < 3.52
8  O=C1N=C(NS(=O)(=O)Cc2ccccc2)S/C1=C/c1ccc2c(c1)OCO2            4.72
9  Cc1cc(C)c(C)c(S(=O)(=O)Nc2ccccc2C(=O)NCCCn2ccnc2)c1C          < 3.52

* * *

Here the recorded pEC50 is given for each entry.
molecular target: Glycogen synthase kinase-3 beta (Homo sapiens, UniProt P49841); assay: concentration-response blocking of human GSK3B – biochemical, luminescence, cell-free homogeneous, retest, dose response (AID 434954)
Sequence (P49841 whole entry): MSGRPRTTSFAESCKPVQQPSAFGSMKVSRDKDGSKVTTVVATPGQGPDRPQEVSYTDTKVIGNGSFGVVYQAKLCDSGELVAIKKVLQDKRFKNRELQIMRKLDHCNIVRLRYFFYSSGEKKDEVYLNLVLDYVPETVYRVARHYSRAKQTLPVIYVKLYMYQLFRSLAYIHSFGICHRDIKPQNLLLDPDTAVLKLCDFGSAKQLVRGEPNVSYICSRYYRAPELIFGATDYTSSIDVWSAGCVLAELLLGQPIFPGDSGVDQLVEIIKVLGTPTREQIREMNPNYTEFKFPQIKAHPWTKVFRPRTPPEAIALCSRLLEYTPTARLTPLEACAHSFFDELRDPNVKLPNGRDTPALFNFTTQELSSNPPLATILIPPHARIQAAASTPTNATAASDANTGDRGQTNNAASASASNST
pEC50: −log10 of the molar value.
OUTCOME MEASURE: pEC50

>>> df
                           structure_smiles  value_observed
0  C[C@H]1CCCC(=O)CCCC=Cc2cc(O)cc(O)c2C(=O)O1            5.26
1  COC(=O)CCC(=O)Oc1ccc(OC(=O)CCC(=O)OC)cc1          < 3.52
2               O=C(O)c1cc(C2CC2)nc2ccccc12          < 3.52
3  O=C(c1cccs1)c1coc2ccc(O)c(CN(CCO)CCO)c12          < 3.52

* * *

molecular target: Glycogen synthase kinase-3 beta (Homo sapiens); assay: concentration-response blocking of human GSK3B – biochemical, luminescence, cell-free homogeneous, retest, dose response (AID 434954)
pEC50: −log10 of the molar value.
Here the recorded pEC50 is given for each entry.
OUTCOME MEASURE: pEC50

>>> print(df.to_string())
                           structure_smiles                       experimental_target  outcome_measure  value_observed
0  CS(=O)(=O)N(Cc1ccccc1)c1ccc(C(=O)Nc2ccccc2Sc2ccccc2)cc1  Glycogen synthase kinase-3 beta (Homo sapiens)            pEC50          < 3.52
1      COc1ccc(OC)c(NCc2nnc(-c3ccccc3)o2)c1  Glycogen synthase kinase-3 beta (Homo sapiens)            pEC50          < 3.52
2            Cc1cc2oc(=O)cc(Cn3ccnc3)c2cc1O  Glycogen synthase kinase-3 beta (Homo sapiens)            pEC50          < 3.52
3             O=C(NN=Cc1ccco1)Nc1cccc(Cl)c1  Glycogen synthase kinase-3 beta (Homo sapiens)            pEC50            4.42
4  CCCN(CCC)Cc1c(C(=O)NN=Cc2ccncc2)nnn1-c1nonc1N  Glycogen synthase kinase-3 beta (Homo sapiens)            pEC50            6.06
5        CC(=O)Oc1ccc2occ(C(=O)c3cccs3)c2c1  Glycogen synthase kinase-3 beta (Homo sapiens)            pEC50          < 3.52
6  COc1ccccc1-c1cc(=O)c2c(O)ccc([N+](=O)[O-])c2o1  Glycogen synthase kinase-3 beta (Homo sapiens)            pEC50          < 3.52
7    CCc1cc(=O)oc2cc(OC(C)=O)cc(OC(C)=O)c12  Glycogen synthase kinase-3 beta (Homo sapiens)            pEC50            4.54
8  Cc1ccc(-c2nn(-c3ccccc3)cc2C=Nn2c(-c3cccs3)n[nH]c2=S)cc1  Glycogen synthase kinase-3 beta (Homo sapiens)            pEC50          < 3.52

* * *

biological target: Glycogen synthase kinase-3 beta (Homo sapiens, UniProt P49841); assay: concentration-response blocking of human GSK3B – biochemical, luminescence, cell-free homogeneous, retest, dose response (AID 434954)
pEC50: −log10 of the molar value.
OUTCOME MEASURE: pEC50

>>> print(df.to_string())
                                    compound                       experimental_target  value_observed
 0  O=C(CCS(=O)(=O)Cc1ccccc1)Nc1ncc([N+](=O)[O-])s1  Glycogen synthase kinase-3 beta (Homo sapiens, UniProt P49841)            4.24
 1  CCOc1ccc2nc(NC(=O)CSc3nc4cccnc4n3C)sc2c1  Glycogen synthase kinase-3 beta (Homo sapiens, UniProt P49841)            5.90
 2         O=C(O)c1ccccc1Nc1ccnc(C(F)(F)F)c1  Glycogen synthase kinase-3 beta (Homo sapiens, UniProt P49841)          < 3.52
 3         O=Cc1cn(CCC(=O)O)nc1-c1cccc(Cl)c1  Glycogen synthase kinase-3 beta (Homo sapiens, UniProt P49841)          < 3.52
 4  Cc1ccnc(NC(=O)Cc2ccc([N+](=O)[O-])cc2)c1  Glycogen synthase kinase-3 beta (Homo sapiens, UniProt P49841)            4.67
 5  CN1CCN(/N=C2\C(=O)Nc3ccc([N+](=O)[O-])cc32)CC1  Glycogen synthase kinase-3 beta (Homo sapiens, UniProt P49841)            5.21
 6   CC(C)Nc1nnc(SCC(=O)NCc2ccc3c(c2)OCO3)s1  Glycogen synthase kinase-3 beta (Homo sapiens, UniProt P49841)          < 3.52
 7  CC(C)OCCCNC(=O)c1ccc(CS(=O)(=O)Cc2ccccc2F)o1  Glycogen synthase kinase-3 beta (Homo sapiens, UniProt P49841)          < 3.52
 8              COc1cccc(C(=O)Nc2nc(C)cs2)c1  Glycogen synthase kinase-3 beta (Homo sapiens, UniProt P49841)          < 3.52
 9  O=C(COc1ccccc1)Nc1ccc2c(c1)C(=O)N(CC1CCCO1)C2=O (centres undefined)  Glycogen synthase kinase-3 beta (Homo sapiens, UniProt P49841)          < 3.52
10  CCCn1nc(NC(=O)C2CCCO2)c2cc3cc(C)ccc3nc21 (centres undefined)  Glycogen synthase kinase-3 beta (Homo sapiens, UniProt P49841)          < 3.52
11  COc1ccc(C(C)N2CC34C=CC(O3)C(C(=O)O)C4C2=O)cc1 (centres undefined)  Glycogen synthase kinase-3 beta (Homo sapiens, UniProt P49841)          < 3.52
12  COc1ccc(-c2nn(CCC(=O)O)cc2/C=C/C(=O)O)cc1[N+](=O)[O-]  Glycogen synthase kinase-3 beta (Homo sapiens, UniProt P49841)          < 3.52
13  COCCNc1nc(N)c([N+](=O)[O-])c(NCC2CCCO2)n1 (centres undefined)  Glycogen synthase kinase-3 beta (Homo sapiens, UniProt P49841)            4.89

* * *

Here the recorded EC50 is given for each entry.
target: Glycogen synthase kinase-3 beta (Homo sapiens, UniProt P49841); test: concentration-response blocking of human GSK3B – biochemical, luminescence, cell-free homogeneous, retest, dose response (AID 434954)
OUTCOME MEASURE: EC50

>>> df
                                   compound  value_observed
0  Cc1ncc(CN2CCCC(C(=O)Nc3ccc(-c4cccc(F)c4)cc3)C2)cn1 (stereo not drawn)        > 300 µM
1  Cc1c(Br)c([N+](=O)[O-])nn1CC(=O)Nc1c(C)n(C)n(-c2ccccc2)c1=O        > 300 µM
2  O=C(N[N-][CH+]c1ccc(N2CCCC2)c([N+](=O)[O-])c1)c1cccnc1        > 300 µM

* * *

biological target: Glycogen synthase kinase-3 beta (Homo sapiens, UniProt P49841); test: concentration-response blocking of human GSK3B – biochemical, luminescence, cell-free homogeneous, retest, dose response (AID 434954)
pEC50: −log10 of the molar value.
Here the recorded pEC50 is given for each entry.
OUTCOME MEASURE: pEC50

In [3]: df
Out[3]:
                           structure_smiles  outcome_measure  value_observed
0  CCN1CCc2c(sc(NC(=O)CN3C(=O)c4ccccc4C3=O)c2C(N)=O)C1            pEC50          < 3.52
1         CCOC(=O)c1ccc(NC(=O)Nc2ccccn2)cc1            pEC50          < 3.52
2  O=S(=O)(/C=C/c1ccccc1)N1CCN(Cc2ccc3c(c2)OCO3)CC1            pEC50          < 3.52
